assay: In vivo pharmacokinetic study in mice, oral ibrutinib (plasma, LC-MS/MS); settings: female, DBA, mouse, plasma, po, 10 mg/kg, Ibrutinib AUC(0-last), female wild-type DBA mice; ibrutinib 10 mg/kg PO; no co-treatment; mean (SD)
reported_property: AUC(0-t) (µg·h/mL)
Give bare numbers, in µg·h/mL.

For the molecule shown here, C=CC(=O)N1CCC[C@@H](n2nc(-c3ccc(Oc4ccccc4)cc3)c3c(N)ncnc32)C1 [Ibrutinib] , give the reported AUC(0-t).
2.73

---

experiment: In vivo pharmacokinetic study in mice, oral ibrutinib (plasma, LC-MS/MS); details: male, FVB, mouse, plasma, po, 10 mg/kg, Ibrutinib Cmax, male wild-type FVB mice; ibrutinib 10 mg/kg PO; co-treatment corn oil; mean (SD)
reported_property: Cmax
Numeric answer plus unit only.

For the molecule shown here, `C=CC(=O)N1CCC[C@@H](n2nc(-c3ccc(Oc4ccccc4)cc3)c3c(N)ncnc32)C1` , give the reported Cmax.
243 ng/mL

---

assay: In vivo pharmacokinetic study in mice, oral ibrutinib (plasma, LC-MS/MS); conditions: male, FVB, mouse, plasma, po, 10 mg/kg, Ibrutinib Cmax, male wild-type FVB mice; ibrutinib 10 mg/kg PO; co-treatment None (ketoconazole experiment); mean (SD)
reported_property: Cmax (ng/mL)
Answers are plain numbers, in ng/mL.

For the compound shown here, `C=CC(=O)N1CCC[C@@H](n2nc(-c3ccc(Oc4ccccc4)cc3)c3c(N)ncnc32)C1` , give the reported Cmax.
404

---

assay: In vivo pharmacokinetic study in mice, oral ibrutinib (plasma, LC-MS/MS); settings: male, C57BL/6, mouse, plasma, po, 10 mg/kg, Ibrutinib AUC(0-last), male OATP2B1(-/-) mice; ibrutinib 10 mg/kg PO; no co-treatment; mean (SD)
reported_property: AUC(0-t) (ng·h/mL)
Numbers only, in ng·h/mL.

For the molecule shown here, C=CC(=O)N1CCC[C@@H](n2nc(-c3ccc(Oc4ccccc4)cc3)c3c(N)ncnc32)C1 [Ibrutinib] , give the reported AUC(0-t).
1770

---

experiment: In vivo pharmacokinetic study in mice, intravenous ibrutinib (plasma); conditions: female, FVB, mouse, plasma, iv, 1 mg/kg, Ibrutinib Cmax, female wild-type FVB mice; ibrutinib 1 mg/kg IV; co-treatment cobicistat; mean (SD)
reported_property: Cmax (ng/mL)
Numbers only, in ng/mL.

For the molecule shown here, `C=CC(=O)N1CCC[C@@H](n2nc(-c3ccc(Oc4ccccc4)cc3)c3c(N)ncnc32)C1` , give the reported Cmax.
1540

---

assay: In vivo pharmacokinetic study in mice, oral ibrutinib (plasma, LC-MS/MS); conditions: female, FVB, mouse, plasma, po, 10 mg/kg, Ibrutinib Cmax, female wild-type FVB mice; ibrutinib 10 mg/kg oral; cotreatment PEG400; mean (SE)
reported_property: Cmax (µg/mL)
Numbers only, in µg/mL.

For the molecule shown here, `C=CC(=O)N1CCC[C@@H](n2nc(-c3ccc(Oc4ccccc4)cc3)c3c(N)ncnc32)C1` , give the reported Cmax.
0.663

---

test: In vivo pharmacokinetic study in mice, oral ibrutinib (plasma, LC-MS/MS); conditions: female, C57BL/6, mouse, plasma, po, 10 mg/kg, Ibrutinib AUC(0-last), female wild-type C57BL/6 mice; ibrutinib 10 mg/kg PO; no co-treatment; mean (SD)
reported_property: AUC(0-t) (ng·h/mL)
One number for each entry, in ng·h/mL.

For the compound shown here, `C=CC(=O)N1CCC[C@@H](n2nc(-c3ccc(Oc4ccccc4)cc3)c3c(N)ncnc32)C1` , give the reported AUC(0-t).
1450
